- Test summary: clinical
- Cond: human, in vivo, iv, Vdss
Bridge positions count the residues as written; N and C are the ends. Square brackets hold non-standard residues; d marks the D form. Peptide text beside a SMILES is read from it. hArg = N=C(N)NCCCC[C@H](N)C(=O)O; Mpa = O=C(O)CCS

{"columns": ["Compound", "Quantity unit", "Vd"],
 "data": [
  ["CC(CCc1ccc2c(c1)OCO2)NCC(O)c1ccc(O)c(C(N)=O)c1 (stereo not drawn)", "L/kg", 7.9],
  ["CO/N=C(\\C(=O)N[C@@H]1C(=O)N2C(C(=O)O)=C(C)CS[C@H]12)c1csc(N)n1", "L/kg", 0.28],
  ["CCOc1ccccc1OCC1CNCCO1 (stereo not drawn)", "L/kg", 0.73],
  ["CO[C@@]1(NC(=O)Cc2cccs2)C(=O)N2C(C(=O)O)=C(COC(N)=O)CS[C@@H]21", "L/kg", 0.17],
  ["CC1CCCC(C)N1CCCC(O)(c1ccccc1)c1ccccn1 (stereo not drawn)", "L/kg", 1.4],
  ["O=C(O)c1cc(-c2ccc(F)cc2F)ccc1O", "L/kg", 0.097],
  ["Cn1cc[nH]c1=S", "L/kg", 0.86],
  ["N=C(N)NCCCC[C@@H]1NC(=O)CCSSC[C@@H](C(N)=O)NC(=O)[C@@H]2CCCN2C(=O)[C@H](Cc2c[nH]c3ccccc23)NC(=O)[C@H](CC(=O)O)NC(=O)CNC1=O [EPTIFIBATIDE] ([Mpa][hArg]GDWPC-NH2; disulfide 1-7)", "L/kg", 0.17],
  ["CN(C)CCCN1c2ccccc2CCc2ccc(Cl)cc21", "L/kg", 13],
  ["CN1Cc2c(N)cccc2C(c2ccccc2)C1 (stereo not drawn)", "L/kg", 6],
  ["COc1cc2c(cc1OC)CN(c1cc(N)c3cc(OC)c(OC)cc3n1)CC2", "L/kg", 6.3],
  ["CN(C)CCC(c1ccc(Cl)cc1)c1ccccn1 (stereo not drawn)", "L/kg", 3.3],
  ["COc1ccccc1OCCNCC(O)COc1cccc2[nH]c3ccccc3c12 (stereo not drawn)", "L/kg", 1.3],
  ["O=C1CN=C(c2ccccc2Cl)c2cc(Cl)ccc2N1", "L/kg", 2.2],
  ["CCN[C@@H]1C[C@H](N)[C@@H](O[C@H]2OC(CN)=CC[C@H]2N)[C@H](O)[C@H]1O[C@H]1OC[C@](C)(O)[C@H](NC)[C@H]1O", "L/kg", 0.073],
  ["CN(C)C(=O)CCS[C@H](SCCC(=O)O)c1cccc(/C=C/c2ccc3ccc(Cl)cc3n2)c1", "L/kg", 0.11],
  ["OC(Cn1cncn1)(Cn1cncn1)c1ccc(F)cc1F", "L/kg", 0.75],
  ["Cc1cc(-n2cccc2)c(S(C)(=O)=O)cc1C(=O)NC(=N)N [ENIPORIDE]", "L/kg", 1.1],
  ["CNC(=C[N+](=O)[O-])NCCSCc1ccc(CN(C)C)o1", "L/kg", 1.2],
  ["Nc1ncn([C@H]2C[C@H](O)[C@@H](CO)O2)c(=O)n1", "L/kg", 4.6],
  ["Nc1c2c(nc3ccccc13)CCCC2", "L/kg", 11],
  ["CCN(CCO)CCCC(C)Nc1ccnc2cc(Cl)ccc12 (stereo not drawn) [HYDROXYCHLOROQUINE]", "L/kg", 700],
  ["CN1C(=O)NC(=O)C(C)(C2=CCCCC2)C1=O (stereo not drawn) [HEXOBARBITAL]", "L/kg", 1.1],
  ["O=P1(NCCCl)OCCCN1CCCl (stereo not drawn) [IFOSFAMIDE]", "L/kg", 0.62],
  ["C[C@@H](O[C@H]1OCCN(Cc2n[nH]c(=O)[nH]2)[C@H]1c1ccc(F)cc1)c1cc(C(F)(F)F)cc(C(F)(F)F)c1 [APREPITANT]", "L/kg", 0.94],
  ["NC[C@H]1O[C@H](O[C@H]2[C@H](O)[C@@H](O[C@H]3O[C@H](CO)[C@@H](O)[C@H](N)[C@H]3O)[C@H](N)C[C@@H]2N)[C@H](O)[C@@H](O)[C@@H]1O", "L/kg", 0.26],
  ["NS(=O)(=O)c1cc(C(=O)O)cc(N2CCCC2)c1Oc1ccccc1 [PIRETANIDE]", "L/kg", 0.17],
  ["CCOC(=O)[C@]1(c2ccccc2)CCC=C[C@H]1NC", "L/kg", 2.5],
  ["CC[C@@]1(O)C(=O)OCc2c1cc1n(c2=O)Cc2cc3c(N)cccc3nc2-1", "L/kg", 2.2],
  ["COc1cccc2c1C(=O)c1c(O)c3c(c(O)c1C2=O)C[C@@](O)(C(=O)CO)C[C@@H]3O[C@H]1C[C@H](N)[C@H](O)[C@H](C)O1", "L/kg", 22],
  ["CC(=O)O[C@H]1C[C@@H]2CC[C@@H]3[C@H](CC[C@@]4(C)[C@H]3C[C@H]([N+]3(C)CCCCC3)[C@@H]4OC(C)=O)[C@@]2(C)C[C@@H]1[N+]1(C)CCCCC1", "L/kg", 0.2],
  ["CO[C@@]1(NC(=O)CSCC#N)C(=O)N2C(C(=O)O)=C(CSc3nnnn3C)CS[C@@H]21", "L/kg", 0.13],
  ["CCN1CCN(C(=O)N[C@@H](C(=O)N[C@@H]2C(=O)N3[C@@H]2SC(C)(C)[C@@H]3C(=O)O)c2ccccc2)C(=O)C1=O", "L/kg", 0.27]
]}
